Source of measurements: PubChem BioAssay AID179

- Test system: CEM cells HIV-1 protection, formazan growth assay
- assay_details: NCI AIDS Antiviral Assay
- particulars: measured here: growth of uninfected CEM cells
- Description: The ability of compounds to protect human CEM cells from HIV-1 infection is measured as a screen for new compounds capable of inhibiting the HIV virus. Five concentrations of drug were tested on uninfected and infected cells and cell growth was measured using a soluble formazan assay. […] Compounds that provided at least 50% protection were retested. Compounds that provided at least 50% protection on retest were listed as moderately active. […]
observable: IC50

Give one value of IC50 per listed compound.
1. CN1CCCC1=NC#N
2. CCCCCCCCCCCSSCCCCCCCCCCC
3. CC(=Nc1ccccc1S)c1c(O)ccc2c(C)cc(=O)oc12

1. > 200 µM
2. > 200 µM
3. > 11.5 µM

Give one value of IC50 per listed compound.
1. c1cc(-c2csc(-c3ccsc3)c2)cs1
2. CCCCCCCCCCCCCCCCCCOc1ccc2c(c1)-c1nc-2nc2[nH]c(nc3nc(nc4[nH]c(n1)c1cc(OCCCCCCCCCCCCCCCCCC)ccc41)-c1ccc(OCCCCCCCCCCCCCCCCCC)cc1-3)c1cc(OCCCCCCCCCCCCCCCCCC)ccc21
3. CCCC(=O)c1c(NOC2OCC(OC(C)=O)C(OC(C)=O)C2OC(C)=O)nc(OC)n(C)c1=O (stereo unspecified)

> 200 µM
> 8.51 µM
> 14.5 µM
